The reported measurements were obtained from patent US7326788B2.

target.desc: c-fms (Homo sapiens, UniProt P07333)
Sequence (P07333 20-972): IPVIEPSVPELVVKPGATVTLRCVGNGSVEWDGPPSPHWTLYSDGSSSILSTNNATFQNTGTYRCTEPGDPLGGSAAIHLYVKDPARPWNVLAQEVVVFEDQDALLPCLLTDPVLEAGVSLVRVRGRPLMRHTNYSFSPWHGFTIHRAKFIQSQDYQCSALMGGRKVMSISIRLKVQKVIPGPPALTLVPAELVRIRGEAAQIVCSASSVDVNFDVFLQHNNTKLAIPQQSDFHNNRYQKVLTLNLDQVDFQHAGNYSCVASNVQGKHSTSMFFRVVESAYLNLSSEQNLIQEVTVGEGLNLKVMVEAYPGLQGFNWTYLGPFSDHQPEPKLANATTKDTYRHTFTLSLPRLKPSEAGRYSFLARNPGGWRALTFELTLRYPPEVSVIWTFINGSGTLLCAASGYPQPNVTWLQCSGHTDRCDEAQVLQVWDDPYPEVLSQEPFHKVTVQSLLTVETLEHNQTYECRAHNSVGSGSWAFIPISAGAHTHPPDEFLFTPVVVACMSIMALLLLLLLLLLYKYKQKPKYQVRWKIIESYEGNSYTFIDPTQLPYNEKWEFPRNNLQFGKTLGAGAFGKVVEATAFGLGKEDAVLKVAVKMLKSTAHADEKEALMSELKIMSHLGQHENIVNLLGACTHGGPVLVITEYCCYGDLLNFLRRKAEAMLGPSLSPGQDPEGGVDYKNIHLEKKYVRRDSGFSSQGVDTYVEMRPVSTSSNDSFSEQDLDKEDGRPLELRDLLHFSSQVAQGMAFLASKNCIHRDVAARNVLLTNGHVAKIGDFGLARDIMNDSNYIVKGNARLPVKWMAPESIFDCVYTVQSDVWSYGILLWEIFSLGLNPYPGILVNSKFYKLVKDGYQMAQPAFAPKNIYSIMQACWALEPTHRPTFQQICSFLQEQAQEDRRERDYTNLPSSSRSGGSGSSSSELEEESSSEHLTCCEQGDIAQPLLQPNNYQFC
metric: IC50

These recorded examples may help you get a feel for the data.
{"columns": ["molecule", "metric", "data.value"],
 "data": [
  ["Cc1cc(-c2c(-c3cc4ccccc4o3)c3cc(Cl)ccc3[nH]c2=O)on1", "IC50", "1 to 10 µM"],
  ["Cc1cc(-c2c(N3CCC(C)(C)CC3)c3cc(Cl)ccc3[nH]c2=O)on1", "IC50", "0.5 to 1 µM"],
  ["Cc1cc(-c2c(-c3cccnc3)c3cc(Cl)ccc3[nH]c2=O)on1", "IC50", "1 to 10 µM"],
  ["CCc1ccc(-c2c(-c3cc(C)no3)c(=O)[nH]c3ccc(C#N)cc23)cc1", "IC50", "< 0.5 µM"],
  ["Cc1cc(-c2c(-c3ccccc3)c3cc(Br)ccc3[nH]c2=O)on1", "IC50", "< 0.5 µM"]
]}

Exercise: State IC50 (c-fms (Homo sapiens, UniProt P07333)) of `Cc1cc(-c2c(-c3ccc(C(C)C)cc3)c3cc(C#N)ccc3[nH]c2=O)on1` .
Key: < 0.5 µM

Exercise: State IC50 (c-fms (Homo sapiens, UniProt P07333)) of `O=c1[nH]c2ccc(Br)cc2c(-c2ccccc2)c1-c1cnc[nH]1` .
Key: < 0.5 µM

Exercise: State IC50 (c-fms (Homo sapiens, UniProt P07333)) of `Cc1cc(-c2c(-c3ccccc3)c3cc(C(=O)O)ccc3[nH]c2=O)on1` .
Key: 1 to 10 µM

Exercise: State IC50 (c-fms (Homo sapiens, UniProt P07333)) of `CCOC(=O)c1cccc(-c2c(-c3ccccc3)c3cc(Cl)ccc3[nH]c2=O)c1` .
Key: > 10 µM

Exercise: State IC50 (c-fms (Homo sapiens, UniProt P07333)) of `CC(C)(C)c1cc(-c2c(-c3ccccc3)c3cc(Cl)ccc3[nH]c2=O)on1` .
Key: < 0.5 µM

Exercise: State IC50 (c-fms (Homo sapiens, UniProt P07333)) of `O=c1[nH]c2ccc(Cl)cc2c(-c2ccccc2)c1-c1ccccn1` .
Key: 1 to 10 µM

====

pIC50: −log10 of the molar value.
Please consider the recorded pIC50 for c-fms (Homo sapiens, UniProt P07333) in what follows.

{"columns": ["compound", "pIC50"],
 "data": [
  ["COc1cccc(-c2c(-c3cc(C)no3)c(=O)[nH]c3ccc(Cl)cc23)c1", "6.00 to 6.30"]
]}

Exercise: State pIC50 (c-fms (Homo sapiens, UniProt P07333)) of `Cc1cc(-c2c(C3=CCCCCC3)c3cc(C#N)ccc3[nH]c2=O)on1` .
Key: > 6.30

Exercise: State pIC50 (c-fms (Homo sapiens, UniProt P07333)) of `Cc1cc(-c2c(-c3ccccc3)c3cc(O)ccc3[nH]c2=O)on1` .
Key: 5.00 to 6.00

Exercise: State pIC50 (c-fms (Homo sapiens, UniProt P07333)) of Cc1cc(-c2c(-c3ccccc3)c3cc(C(O)CO)ccc3[nH]c2=O)on1 (stereo not shown) .
Key: < 5.00
